Hello, the source for this data is patent US20240002497A1, in case you need it.

systemTested: T1, huNav1.7α+β1-β2-β3 (human, UniProt Q15858 1-1988; Q07699 19-218; O60939 30-215; Q9NY72 23-215)
T1 construct: 5N11S variant; also called huNav1.7-beta1-beta2-beta3; huNav1.7α+Navβ1-Navβ2-Navβ3
testDetails: binding FACS, CHO FlpIn cells
endpointLabel: EC50 (nM)

binder	EC50 / nM
F0103464B09 (parental)-FLAG-HIS6 (VHH, also called F103464B09) VHH: EVQLVESGGGLVQPGGSLRLSCATTSRAFIRDVFTGWYRRVPGKERELVARIYNGGNTNYADFAKGRFSISRDNAKKMVTLRMSNLKPEDTGVYYCLFSGTINTGREYRSGDYWGQGTLVTVSS	4.1

a = F0103265A11 (parental)-FLAG-HIS6 (VHH, also called F01033265A11) VHH: EVQLVESGGGLVQPGGSLRLSCAASGMLFNANTQGWYRQAPGKQRELVAFIFSGGYTNYVDSVKGRFTISRDNAKRTMYLQMNSLKPEDSAIYYCSLSRYLGQGTLVTVSS
b = F0103262B06 (parental)-FLAG-HIS6 (VHH) VHH: EVQLVESGGGLVQPGGSLRLSCAGSTRTFSTYAMGWFRQAPGREREFVAHINFSGSSTRYADSVKGRFTISRDNAKNMGYLQMNSLKPEDTAVYYCAARWVAGPPRYDYEYWGQGTLVTVSS
c = F0103362B08 (parental)-FLAG-HIS6 (VHH) VHH: EVQLVESGGGLVQAGGSLRLSCAASVRPFSTSAMGWFRQAPEKEREAVAGILWNGIVTYYADSVKGRFTISRDNAKNEVYLQMNKLKPEDTAVYYCALDRDYGGRSFSAYEYEYWGQGTLVTVSS
Req: Hello, I need these entries ordered by EC50, highest reading first. Thanks! Give the order by naming the labels one after another as requested.
Resp: c, a, b
